Molecular target: truncated Polθ protein (Polθ-Hel containing the helicase domain (67-894)) (Homo sapiens (Human), UniProt O75417)
Sequence (O75417 67-894): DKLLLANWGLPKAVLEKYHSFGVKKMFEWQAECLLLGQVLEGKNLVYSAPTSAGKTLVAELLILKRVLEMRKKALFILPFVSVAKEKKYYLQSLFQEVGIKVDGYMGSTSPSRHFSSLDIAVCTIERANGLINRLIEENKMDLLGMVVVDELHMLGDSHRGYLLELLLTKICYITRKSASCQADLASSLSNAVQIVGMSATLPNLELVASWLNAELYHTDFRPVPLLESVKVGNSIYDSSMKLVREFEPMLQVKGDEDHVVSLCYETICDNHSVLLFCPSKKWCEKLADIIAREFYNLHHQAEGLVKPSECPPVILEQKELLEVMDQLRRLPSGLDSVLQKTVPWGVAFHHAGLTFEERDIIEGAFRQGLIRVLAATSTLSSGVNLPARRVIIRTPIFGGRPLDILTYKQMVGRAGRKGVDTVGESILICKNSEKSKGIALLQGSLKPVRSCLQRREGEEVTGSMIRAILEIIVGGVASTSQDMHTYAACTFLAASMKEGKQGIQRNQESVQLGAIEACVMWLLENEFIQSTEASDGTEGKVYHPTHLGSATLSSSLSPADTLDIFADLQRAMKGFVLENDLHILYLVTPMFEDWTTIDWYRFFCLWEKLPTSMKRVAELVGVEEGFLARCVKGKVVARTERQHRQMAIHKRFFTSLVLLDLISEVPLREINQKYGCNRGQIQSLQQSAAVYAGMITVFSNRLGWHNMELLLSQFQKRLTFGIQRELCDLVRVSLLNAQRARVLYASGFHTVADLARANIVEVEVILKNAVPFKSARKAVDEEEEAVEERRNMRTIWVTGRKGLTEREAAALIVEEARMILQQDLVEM
Test: Polθ ATPase assay (Biological Assay 1, ADP-Glo luminescence)
Format: biochemical
Details: Table A; Polθ-Hel 0.5 nM, DNA substrate 500 nM, ATP 60 μM
Protocol: The Polθ ATPase assay was used to evaluate inhibitors of Polθ ATPase activity, in vitro. […] Luminescence was then measured using Tecan F200 infinite plate reader. Raw data were analysed using GeneData to generate IC50 values. […]
result.type: IC50

# input Give the measured IC50 of COc1cnc(Cl)cc1-c1cc(C)ncc1C(=O)Nc1nc2cnc(N3CCC(O)CC3)cc2s1 .
# output < 100 nM

# input Which IC50 value belongs to COc1ccccc1-c1cnccc1C(=O)Nc1nc2ccccc2s1 ?
# output > 1000 nM

# input Which IC50 is reported for this molecule? COc1cnc(Cl)cc1-c1cc(C)ncc1C(=O)Nc1nc2ccc(I)cc2s1
# output < 100 nM

###

Target: truncated Polθ protein (Polθ-Hel containing the helicase domain (67-894)) (Homo sapiens (Human))
Assay: Polθ ATPase assay (Biological Assay 1, ADP-Glo luminescence)
Type: biochemical
Conditions: Table B (Part B compounds); same assay as Biological Assay 1
result.type: IC50

# input Quick one: IC50 of COc1cnc(Cl)cc1-c1cc(C)ncc1C(=O)Nc1nc2cnc(N3CC(OC)C3)cc2s1 [Example 129] ?
# output < 100 nM
